Would you kindly list solubility for each of these compounds?
experiment description: Aqueous solubility of the compound at pH 7.4 by HPLC analysis
Assay type: physicochemical
measurement context: buffer
State just the number; it will be interpreted in µg/mL.

QUERY: # solubility lookup, item `Cc1cc(/C=C/C#N)cc(C)c1Oc1nc(NC2CCN(Cc3ccc(C(N)=O)cc3)CC2)nc2c1COC2`
RESULT: 5.24

QUERY: # solubility lookup, item `Cc1cc(/C=C/C#N)cc(C)c1Oc1nc(NC2CCN(c3ccc(NS(C)(=O)=O)cc3)CC2)nc2c1COC2`
RESULT: 2.1

* * *

I'd be grateful if you could share measured AUC(0-inf) for these entries.
experiment description: AUC(0 to infinity) in Sprague-Dawley rat at 2 mg/kg, iv measured upto 10 hrs by LC-MS/MS analysis
Type: ADME, organism-based
Parameters: route intravenous, dose 2 mg/kg, time <=10
measurement context: in vivo
The reply should contain only the number, in ng·h/mL.

QUERY: Param item = `Cc1cc(/C=C/C#N)cc(C)c1Oc1nc(NC2CCN(Cc3ccc(C(N)=O)cc3)CC2)nc2c1COC2` ; retrieve measured AUC(0-inf).
RESULT: 503

QUERY: Sample `Cc1cc(/C=C/C#N)cc(C)c1Oc1nc(NC2CCN(c3ccc(NS(C)(=O)=O)cc3)CC2)nc2c1COC2` — what was its AUC(0-inf)?
RESULT: 908
